Items are presented alongside their recorded C5b-9 ELISA IC50.
# studySystem: human complement protein C3 (human, UniProt P01024 23-1663)
# Sequence (P01024 23-1663 limits assumed): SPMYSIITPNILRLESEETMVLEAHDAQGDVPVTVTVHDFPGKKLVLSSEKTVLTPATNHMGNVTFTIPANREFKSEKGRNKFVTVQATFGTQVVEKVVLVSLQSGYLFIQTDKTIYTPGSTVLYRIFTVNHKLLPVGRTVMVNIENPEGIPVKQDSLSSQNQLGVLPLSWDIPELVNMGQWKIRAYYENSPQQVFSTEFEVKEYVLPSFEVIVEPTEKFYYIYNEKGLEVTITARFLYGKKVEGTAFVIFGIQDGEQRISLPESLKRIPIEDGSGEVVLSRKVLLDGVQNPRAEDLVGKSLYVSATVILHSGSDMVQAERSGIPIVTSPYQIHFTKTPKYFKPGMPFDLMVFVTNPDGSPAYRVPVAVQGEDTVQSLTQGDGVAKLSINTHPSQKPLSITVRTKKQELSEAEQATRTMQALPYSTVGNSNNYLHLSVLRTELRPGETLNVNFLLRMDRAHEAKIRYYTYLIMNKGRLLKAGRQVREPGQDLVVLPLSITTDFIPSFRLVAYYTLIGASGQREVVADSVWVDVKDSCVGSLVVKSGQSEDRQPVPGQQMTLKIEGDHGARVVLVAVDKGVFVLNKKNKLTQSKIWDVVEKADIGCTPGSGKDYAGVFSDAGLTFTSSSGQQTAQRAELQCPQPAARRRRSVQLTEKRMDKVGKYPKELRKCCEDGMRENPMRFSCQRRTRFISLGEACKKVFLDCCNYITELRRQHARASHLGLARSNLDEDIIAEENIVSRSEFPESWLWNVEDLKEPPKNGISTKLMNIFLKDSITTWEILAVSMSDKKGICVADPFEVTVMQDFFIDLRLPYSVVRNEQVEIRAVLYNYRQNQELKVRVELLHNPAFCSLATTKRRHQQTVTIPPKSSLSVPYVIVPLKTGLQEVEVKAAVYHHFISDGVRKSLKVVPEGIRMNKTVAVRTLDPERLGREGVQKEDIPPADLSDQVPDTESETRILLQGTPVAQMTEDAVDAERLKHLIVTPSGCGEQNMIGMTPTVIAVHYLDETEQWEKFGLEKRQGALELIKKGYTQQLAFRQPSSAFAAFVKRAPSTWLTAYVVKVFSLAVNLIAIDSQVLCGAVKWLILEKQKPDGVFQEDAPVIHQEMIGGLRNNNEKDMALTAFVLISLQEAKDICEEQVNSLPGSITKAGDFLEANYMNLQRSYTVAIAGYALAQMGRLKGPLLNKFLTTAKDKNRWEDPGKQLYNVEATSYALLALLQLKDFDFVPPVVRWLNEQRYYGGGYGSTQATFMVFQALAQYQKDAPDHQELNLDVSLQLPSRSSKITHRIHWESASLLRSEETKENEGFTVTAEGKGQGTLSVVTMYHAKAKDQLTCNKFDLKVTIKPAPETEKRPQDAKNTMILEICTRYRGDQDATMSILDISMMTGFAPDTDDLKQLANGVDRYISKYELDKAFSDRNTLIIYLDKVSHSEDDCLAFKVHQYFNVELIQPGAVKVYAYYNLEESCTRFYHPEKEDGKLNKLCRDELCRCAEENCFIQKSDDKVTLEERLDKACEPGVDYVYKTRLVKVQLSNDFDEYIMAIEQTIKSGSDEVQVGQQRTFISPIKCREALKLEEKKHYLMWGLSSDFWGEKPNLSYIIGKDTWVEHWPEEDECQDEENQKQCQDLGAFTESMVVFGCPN
# assaySummary: cell-based or functional assay
Bridge positions count the residues as written; N and C are the ends. Square brackets hold non-standard residues; d marks the D form. Nal = 1-naphthylalanine or 2-naphthylalanine
Output spec: scalar in nM, unitless text.

Example entries begin here.
[[record]]
binder = "Ac-RSICV[Nal]QDWG[Nal]HRCT-NH2 (disulfide 4-14; not fully specified; printed as Ac-RSICV{Nal}QDWG{Nal}HRCT-NH2) [Peptide 4.8, Ac-RS-ICV{Nal}QDWG{Nal}HRCT-NH2]"
readoutname = "C5b-9 ELISA IC50"
unitofmeasurement = "nM"
recordedvalue = 2400

[[record]]
binder = "Ac-ERICVWQDWG[Nal]HRCT-NH2 (disulfide 4-14; not fully specified; printed as Ac-ER-ICVWQDWG{Nal}HRCT-NH2) [Peptide 4.1, Ac-ER-ICVWQDWG{Nal}HRCT-NH2]"
readoutname = "C5b-9 ELISA IC50"
unitofmeasurement = "nM"
recordedvalue = 1800

[[record]]
binder = "Ac-NRLCVWQDWGAHRCT-NH2 (disulfide 4-14; SMILES CC(=O)N[C@@H](CC(N)=O)C(=O)N[C@@H](CCCNC(=N)N)C(=O)N[C@@H](CC(C)C)C(=O)N[C@H]1CSSC[C@@H](C(=O)N[C@H](C(N)=O)[C@@H](C)O)NC(=O)[C@H](CCCNC(=N)N)NC(=O)[C@H](Cc2c[nH]cn2)NC(=O)[C@H](C)NC(=O)CNC(=O)[C@H](Cc2c[nH]c3ccccc23)NC(=O)[C@H](CC(=O)O)NC(=O)[C@H](CCC(N)=O)NC(=O)[C@H](Cc2c[nH]c3ccccc23)NC(=O)[C@H](C(C)C)NC1=O) [Peptide 3.3, Ac-NR-LCVWQDWGAHRCT-NH2]"
readoutname = "C5b-9 ELISA IC50"
unitofmeasurement = "nM"
recordedvalue = 500


Could you now consider this next binder?
Looking up Ac-RSICVWQDWGAHRCT-NH2 (disulfide 4-14) [Peptide 3.4, Ac-RS-ICVWQDWGAHRCT-NH2] , I see its C5b-9 ELISA IC50 listed as 600
